Target: EmrE (Escherichia coli, UniProt P23895)
Construct: dimer by TPP stoichiometry
Sequence (P23895 whole entry): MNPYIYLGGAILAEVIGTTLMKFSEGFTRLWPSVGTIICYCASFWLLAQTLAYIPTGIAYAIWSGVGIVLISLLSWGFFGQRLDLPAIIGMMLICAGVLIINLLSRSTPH
Assay: isothermal titration calorimetry
pKd: −log10 of the molar value.

compound: c1ccc([P+](c2ccccc2)(c2ccccc2)c2ccccc2)cc1 [TPP]
pKd: 7.44

Entry source: paper PMC2605743
